Tested on: ATP;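 also: ATP exposure 15 min at 22 °C before imaging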
Measurement notes: switch fluorescence ratio, 500 uM ATP over buffer (Cy3 cluster intensity, sum of 5 cycles each) (fold (ratio)); higher = stronger signal-on switching upon ATP binding; sequences stand for … in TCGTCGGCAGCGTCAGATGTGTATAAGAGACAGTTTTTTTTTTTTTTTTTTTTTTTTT…TC
Condition: aptamer strand: ATP DNA aptamer (quencher-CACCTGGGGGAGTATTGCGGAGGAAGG + anchor), 100 nM annealed; ATP concentration: 500 uM
Each record here notes measured switch fluorescence ratio.
Number only, no unit.

Recorded switch fluorescence ratio, per entry:
GAAAGATAAG: 0.985
CAGGAAGCTG: 1.04

What value of measured switch fluorescence ratio is listed for "TTTTTTAATT" ?
1.03

What value of measured switch fluorescence ratio is listed for "TCGTTACCTT" ?
1.13
